- Test system: NCI-H226
- assayDetails: NCI tumour cell line growth inhibition, 48 h
Active and inactive are the calls of the source. No stated cut-off is given here; in the data, active = GI50 up to about 1.1 µM and inactive = higher.
Write down the outcome that applies. Available outcomes: YES = active, NO = inactive

Inquiry: Outcome logged for O/N=C(\CC(O)(C(F)(F)F)C(F)(F)F)c1cccc(Cl)c1 in this assay:
Reply text: NO

Inquiry: Now consider Cc1ccc(S(=O)(=O)N/N=C/c2oc(-c3ccncc3)c(-c3ccncc3)c2[N+](=O)[O-])cc1 .
Reply text: NO

Inquiry: Okay, and O=C(/C=C/c1ccccc1)OCC1=C[C@@H](O)[C@@H]2C=CO[C@@H](OC3OC(CO)C(O)C(O)C3O)[C@H]12 (some centres undefined) ?
Reply text: NO

Inquiry: Note, next up: O=C(O)C1CCCCN1c1ccccc1[N+](=O)[O-] (centres undefined)
Reply text: NO

Inquiry: Note, next up: CCOC(=O)Cc1ccc2c(c1O)C(=O)c1c(ccc(CC(=O)OCC)c1O)C2=O
Reply text: NO

Inquiry: Param item: O=C1CSC2(CC(/C=C/c3ccccc3O)=NN2c2cccc(S(=O)(=O)O)c2)N1c1nc2ccccc2s1 (centres undefined)
Reply text: NO

Inquiry: Can you check CN(CCNC(=O)c1cn(C)c2c1ccc1cc(Cl)c(Cl)cc12)CCNC(=O)c1cn(C)c2c1ccc1cc(Cl)c(Cl)cc12 next?
Reply text: NO

Inquiry: What do you get for CCC1=C(c2ccc(OC)cc2)CC[C@@]2(CCNC2=O)[C@@H]1C ?
Reply text: NO

Inquiry: // query: C/C=C1\CN2CCc3c([nH]c4ccccc34)C2C=C1CCO (centres undefined)
Reply text: NO

Inquiry: Param item: CC(=O)/C=C1\Nc2ccc([N+](=O)[O-])cc2N\C1=C/C(C)=O
Reply text: NO

Inquiry: Would you mind doing Cc1nc2c(s/c(=N\N)n2-c2ccccc2)c(=O)n1C as well?
Reply text: NO

Inquiry: Field entry: O=C1/C(=C/c2cccc([N+](=O)[O-])c2)Sc2scc(-c3ccc([N+](=O)[O-])cc3)[n+]21
Reply text: NO

Inquiry: Follow-up item: CC(C)(C)OC(=O)N1C(C2=COc3ccccc3O2)=COc2ccccc21
Reply text: NO

Inquiry: Item: C/C1=C\[C@H](C)C[C@H](C)OC(=O)[C@H](C)NC(=O)[C@@H](Cc2ccc(O)c(Br)c2)N(C)C(=O)[C@H](C)NC(=O)[C@@H](C)C1
Reply text: YES

Inquiry: One more compound: Cc1ccc(/N=N/c2c(O)c(C(=O)O)cc3ccccc23)cc1C
Reply text: NO

Inquiry: Then Nc1nc(N)c(-c2ccc(Cl)cc2)c(CCC(=O)Nc2cccc(C(F)(F)F)c2)n1 ?
Reply text: NO

Inquiry: And what about the compound CC(C)(C)OC(=O)NCC(=O)NC1C/C(=N\O)c2sccc21 (centres undefined) ?
Reply text: NO

Inquiry: Moving on to NC(=O)CCC(NC(=O)c1cccc2c(=O)c3ccccc3[nH]c12)C(=O)O (centres undefined)
Reply text: NO

Inquiry: Same for CN(CCc1ccccn1)C(=S)N/N=C/c1ccccn1
Reply text: YES
